B1: TPR t1 (parent)
chain: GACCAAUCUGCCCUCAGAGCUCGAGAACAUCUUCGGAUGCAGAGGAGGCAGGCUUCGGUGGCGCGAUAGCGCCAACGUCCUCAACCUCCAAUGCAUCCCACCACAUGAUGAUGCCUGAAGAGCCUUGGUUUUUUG

variants of: B1; assay: polymerase ribozyme fitness, log enrichment relative to wild type (log ratio); higher = more active; in vitro selection for triplet polymerase activity
polymerase ribozyme fitness (log ratio) below -4 gives N; polymerase ribozyme fitness (log ratio) at or above it gives Y.

{"mutationDescriptor": "G61C A66C G135U", "classAssignment": "N"}
{"mutationDescriptor": "C40A C124U", "classAssignment": "Y"}
{"mutationDescriptor": "C40U G63A", "classAssignment": "Y"}
{"mutationDescriptor": "C49A U131C", "classAssignment": "Y"}
{"mutationDescriptor": "G110U U130A", "classAssignment": "Y"}
{"mutationDescriptor": "G60A C80A C85G C98U", "classAssignment": "N"}
{"mutationDescriptor": "C11G C22A A26C C102A", "classAssignment": "N"}
{"mutationDescriptor": "C53A U55A G71C C88U C89U", "classAssignment": "Y"}
{"mutationDescriptor": "C8U U129G U133A", "classAssignment": "Y"}
{"mutationDescriptor": "C62U U130G", "classAssignment": "Y"}
{"mutationDescriptor": "C64G U112G G120A", "classAssignment": "N"}
{"mutationDescriptor": "C4U C11A G61U C98U G113A U126G", "classAssignment": "N"}
{"mutationDescriptor": "G44A A68G", "classAssignment": "Y"}
{"mutationDescriptor": "C99U G110U A121G", "classAssignment": "N"}
{"mutationDescriptor": "A27U A29C G35C A68U U109G A119G G127A", "classAssignment": "N"}
{"mutationDescriptor": "U14A C31U U87C U112G", "classAssignment": "N"}

Origin of the recorded values: the RNAGym collection of RNA variant scans (doi:10.1073/pnas.2313332121)
